Task for the reader: assign each of the following binders its reported binding relative to P54AR4-83v2 parent.
- test.system: EGFR (form used in the assay not stated) (human, UniProt P00533 25-645, limits assumed)
- assay.protocol: ELISA, NEM conjugate, 10 nM
Just the number in ratio, nothing appended.

For reference, reported binding relative to P54AR4-83v2 parent for P54AR4-83v2 E43C, NEM conjugate (designed binder, not shown: small tags and cut ends, N-ethyl maleimide (NEM) on Cys 43) LPAPKNLVVSEVTEDSARLSWDDPWAFYESFLIQYQESEKVGCAIVLTVPGSERSYDLTGLKPGTEYTVSIYGVHNVYKDTNMRGLPLSAIFTT stands at 0.68

For reference, reported binding relative to P54AR4-83v2 parent for P54AR4-83v2 P4C, NEM conjugate (designed binder, not shown: small tags and cut ends, N-ethyl maleimide (NEM) on Cys 4) LPACKNLVVSEVTEDSARLSWDDPWAFYESFLIQYQESEKVGEAIVLTVPGSERSYDLTGLKPGTEYTVSIYGVHNVYKDTNMRGLPLSAIFTT stands at 0.02
